Molecular target: Tubulin (Bos taurus, UniProt Q6B856+Q862L2+Q862F3)
Experiment: Inhibitory activity against tubulin polymerization
Format: protein assay
quantity-kind: IC50 (µM)
Output spec: scalar in µM, unitless text.

compound: COc1ccc(/C=C(/C(N)=O)c2cc(OC)c(OC)c(OC)c2)cc1N
quantity-kind: IC50
test-value: 3

compound: COc1ccc(/C=C(/C#N)c2cc(OC)c(OC)c(OC)c2)cc1NC(C)=O
quantity-kind: IC50
test-value: 10

compound: COc1ccc(/C=C(/C#N)c2cc(OC)c(OC)c(OC)c2)cc1O
quantity-kind: IC50
test-value: 5

query: Input COc1cc(/C=C\c2ccc(Cl)c(N)c2)cc(OC)c1OC , output reported IC50.
result: 3

query: Annotate the compound COc1cc(/C=C\c2ccc(C)c(N)c2)cc(OC)c1OC with its measured IC50.
result: 4

query: Identify IC50 associated with the compound COc1cc(/C(C#N)=C\c2ccc(Cl)c(N)c2)cc(OC)c1OC
result: 6

query: Give me measured IC50, please, for this compound: COc1ccc(CC(C#N)c2cc(OC)c(OC)c(OC)c2)cc1N (centres undefined)
result: 7

query: Write down IC50 measured for item COc1ccc(/C(C#N)=C\c2cc(OC)c(OC)c(OC)c2)cc1N
result: 5

query: Supply measured IC50 of COc1ccc(/C=C(/C=O)c2cc(OC)c(OC)c(OC)c2)cc1 in your reply.
result: 4

###

Test system: Colon 26
Test: Growth inhibition of colon 26 adenocarcinoma cells by 50 %.
Format: functional, cell-based
Conditions: Mus musculus
pIC50: −log10 of the molar value.
Outcome label depends on pIC50 relative to 7: at/above gives t, below gives f.

query-smiles: COc1ccc(/C=C(/C=O)c2cc(OC)c(OC)c(OC)c2)cc1
classification: f
//
query-smiles: COc1ccc(/C=C(/C#N)c2cc(OC)c(OC)c(OC)c2)cc1O
classification: t
//
query-smiles: COc1ccc(/C=C(/C#N)c2cc(OC)c(OC)c(OC)c2)cc1NC(C)=O
classification: t
//
query-smiles: COc1ccc(/C=C(/C#N)c2cc(OC)c(OC)c(OC)c2)cn1
classification: f

query: Would you say COc1ccc(/C=C\c2cc(OC)c(OC)c(OC)c2)cc1N shows pIC50 at minimum 7?
result: t

###

# key: entry, value: IC50
Test system: Colon 26
Assay: Growth inhibition of colon 26 adenocarcinoma cells by 50 %.
Type: functional, cell-based
Conditions: Mus musculus
Return type: number; implicit unit nM.

Examples with their reported IC50 follow.
query-smiles: COc1ccc(/C=C(/C(N)=O)c2cc(OC)c(OC)c(OC)c2)cc1N
IC50, nM: 195
//
query-smiles: COc1cc(/C(C#N)=C/c2ccc(C)c(N)c2)cc(OC)c1OC
IC50, nM: 722

query: Identify measured IC50 corresponding to COc1cc(/C(C#N)=C\c2ccc(Cl)c(N)c2)cc(OC)c1OC
result: 58.1

query: Supply measured IC50 of COc1ccc(/C=C(/C#N)c2cc(OC)c(OC)c(OC)c2)cc1[N+](=O)[O-] in your reply.
result: 135

###

Target: Tubulin (Bos taurus, UniProt Q6B856+Q862L2+Q862F3)
Experiment: Inhibitory activity against tubulin polymerization
Type: protein assay
quantity-kind: IC50 (µM)
Give your result in µM as a bare value.

Worked examples, 4 compounds total:
query-smiles: COc1ccc(/C=C(/C#N)c2ccc(OC)c(OC)c2)cc1N
IC50 [µM]: 7

query-smiles: COc1cc(/C(C#N)=C\c2ccc(C)c(N)c2)cc(OC)c1OC
IC50 [µM]: 10

query-smiles: COc1ccc(/C(C#N)=C\c2ccc(OC)c(N)c2)cc1
IC50 [µM]: 9

query-smiles: COc1ccc(/C=C(/C#N)c2cc(OC)c(OC)c(OC)c2)cc1
IC50 [µM]: 6

query: Provide measured IC50 value, entry: COc1ccc(/C=C(/C#N)c2cc(OC)c(OC)c(OC)c2)cc1[N+](=O)[O-]
result: 5

###

System: Colon 26
Experiment: Growth inhibition of colon 26 adenocarcinoma cells by 50 %.
Assay type: functional, cell-based
Details: Mus musculus
Overview of recorded pIC50 for various molecules
On this scale, pIC50 is minus log10 of a concentration expressed in M (mol/L).

As a guide, the following entries are already answered.
molecule: COc1ccc(/C=C(/C#N)c2cc(OC)c(OC)c(OC)c2)cc1N
study-system: Colon 26
pIC50: 8.23

molecule: COc1ccc(/C=C\c2cc(OC)c(OC)c(OC)c2)cc1O
study-system: Colon 26
pIC50: 7.74

molecule: COc1ccc(/C=C(\C#N)c2cc(OC)c(OC)c(OC)c2)cc1N
study-system: Colon 26
pIC50: 7.90

query: Given COc1ccc(CC(C#N)c2cc(OC)c(OC)c(OC)c2)cc1N (stereo not given) , report its pIC50 on Colon 26.
result: 7.65

###

Target: Tubulin (Bos taurus, UniProt Q6B856+Q862L2+Q862F3)
Assay: Inhibitory activity against tubulin polymerization
Format: protein assay
Each item that follows carries a reported IC50.

Consider the following illustrative entries.
query-smiles: COc1cc(/C(C#N)=C/c2ccc(C)c(N)c2)cc(OC)c1OC
quantity-kind: IC50
test-value: > 20 µM

query-smiles: COc1ccc(/C=C(\C#N)c2cc(OC)c(OC)c(OC)c2)cc1
quantity-kind: IC50
test-value: > 20 µM

query-smiles: COc1ccc(/C=C(\C#N)c2cc(OC)c(OC)c(OC)c2)cc1N
quantity-kind: IC50
test-value: > 20 µM

Alright, here's another molecule for you.
query: Determine from records and report IC50 for COc1ccc(/C=C(/CO)c2cc(OC)c(OC)c(OC)c2)cc1
result: > 20 µM
